target-or-test-system: UniProt:Q92633
experiment-description: LPA1 functional antagonist assay (LPA-induced calcium flux)
experimental-parameters: CHO cells overexpressing human LPA1; calcium flux induced by 10 nM LPA; read-out: hLPA1 IC50
measurement-type: log10 of IC50 (log10 of the value in nM)
Response schema: value (number) is log10 of IC50 in units of nM.

Previously resolved entries follow.
# molecule, reported
rows = [
    ("CC(C1CCC1)N(C)C(=O)OCc1c(-c2ccc(O[C@H]3CCCC(C(=O)O)C3)cn2)cnn1C (some centres unmarked)", 2.13),
    ("CCCC(C)N(C)C(=O)OCc1c(-c2ccc(O[C@H]3CCC[C@H](C(=O)O)C3)cc2)cnn1C (some centres unmarked)", 1.94),
    ("CC(C1CCC1)N(C)C(=O)OCc1c(-c2ccc(O[C@H]3CCC[C@H](C(=O)O)C3)cc2)cnn1C (some centres unmarked)", 1.34),
    ("Cc1nc(-c2cnn(C)c2COC(=O)N(C)CC23CC(F)(C2)C3)ncc1O[C@H]1CCC[C@H](C(=O)O)C1", 2.54),
]

Let us move to another entry and its log10 of IC50.
Return reported log10 of IC50; argument: `Cc1nc(-c2cnn(C)c2COC(=O)N(C)CC2CCC2)ccc1O[C@H]1CCC[C@H](C(=O)O)C1` 1.00

###

Listed compounds paired with reported IC50
target-or-test-system: LPA1 (Homo sapiens)
Sequence (Q92633 whole entry): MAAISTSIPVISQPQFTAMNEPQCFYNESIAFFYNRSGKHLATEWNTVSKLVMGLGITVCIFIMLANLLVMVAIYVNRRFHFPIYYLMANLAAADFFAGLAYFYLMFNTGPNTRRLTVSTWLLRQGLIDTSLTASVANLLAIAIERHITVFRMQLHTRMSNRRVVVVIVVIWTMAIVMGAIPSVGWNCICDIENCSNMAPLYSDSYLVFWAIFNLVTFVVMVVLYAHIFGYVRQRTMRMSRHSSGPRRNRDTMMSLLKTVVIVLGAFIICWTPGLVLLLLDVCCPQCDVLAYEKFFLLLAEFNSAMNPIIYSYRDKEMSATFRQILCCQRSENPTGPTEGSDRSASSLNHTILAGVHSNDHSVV
experiment-description: LPA1 functional antagonist assay (LPA-induced calcium flux)
experimental-parameters: CHO cells overexpressing human LPA1; calcium flux induced by 10 nM LPA; read-out: hLPA1 IC50
State just the number; it will be interpreted in µM.

# compound, target-or-test-system, IC50 / µM
measured = [
    ("CCC(CC)N(C)C(=O)OCc1c(-c2ccc(O[C@H]3CCC[C@H](C(=O)O)C3)cn2)cnn1C", "LPA1 (Homo sapiens)", 0.03),
    ("CCc1nc(-c2cnn(C)c2COC(=O)N(C)C2CCC2)ncc1O[C@H]1CCC[C@H](C(=O)O)C1", "LPA1 (Homo sapiens)", 0.217),
    ("Cc1cc(-c2cnn(C)c2COC(=O)N(C)C2CCCC2)ccc1O[C@H]1CCC[C@H](C(=O)O)C1", "LPA1 (Homo sapiens)", 0.008),
    ("CN(CC1CCC1)C(=O)OCc1c(-c2ccc(O[C@H]3CCC[C@H](C(=O)O)C3)cn2)cnn1C", "LPA1 (Homo sapiens)", 0.048),
]

Return reported IC50; argument: CC(C1CC1)N(C)C(=O)OCc1c(-c2ccc(O[C@H]3CCC[C@H](C(=O)O)C3)cc2)cnn1C (some centres unmarked) 0.023
